Cited source: patent US7064120B2

# Target Under Test: human vasopressin V2 receptor subtype (Homo sapiens)
# Construct: host or cells: CHO cells, stably transfected (pZeoSV vector)
# Sequence (P30518 whole entry): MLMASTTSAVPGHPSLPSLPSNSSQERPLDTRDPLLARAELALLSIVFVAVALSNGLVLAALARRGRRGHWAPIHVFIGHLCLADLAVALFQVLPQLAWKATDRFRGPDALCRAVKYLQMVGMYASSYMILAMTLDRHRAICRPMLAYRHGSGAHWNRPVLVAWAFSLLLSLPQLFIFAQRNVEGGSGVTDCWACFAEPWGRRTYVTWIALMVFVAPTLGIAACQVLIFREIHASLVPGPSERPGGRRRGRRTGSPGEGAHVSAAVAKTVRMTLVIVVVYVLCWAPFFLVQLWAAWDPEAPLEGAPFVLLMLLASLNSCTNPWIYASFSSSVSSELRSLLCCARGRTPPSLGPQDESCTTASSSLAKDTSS
# Method Notes: Vasopressin binding in CHO cell membranes expressing human vasopressin V2 subtype receptors ([3H]arginine vasopressin radioligand binding)
# Study Conditions: 100 nM
# Procedure: Vasopressin Binding in Chinese Hamster Ovary Cell Membranes Expressing Human Vasopressin V2 Subtype Receptors Chinese Hamster Ovary (CHO) cells stably transfected with the human V2 subtype receptors were obtained from M. Thibonnier, Case Western Reserve University School of Medicine, Cleveland, Ohio. […] Binding data is either reported as percent inhibition at a certain concentration or if an IC50 was calculated, as a nanomolar concentration.
Measure: inhibition at 0.1 µM (%)

See these solved cases before continuing.
# Compound, Target Under Test, inhibition at 0.1 µM (%)
measured = [
    ("COc1ccccc1-c1ccc(C(=O)N2Cc3ccc(C(=O)N(C)CCc4ccccn4)n3Cc3ccccc32)cc1C [Example 65]", "human vasopressin V2 receptor subtype (Homo sapiens)", 16),
    ("CN(CCc1ccncc1)C(=O)c1ccc2n1Cc1ccccc1N(C(=O)c1ccc(-c3cccc4ccccc34)cc1Cl)C2 [Example 136]", "human vasopressin V2 receptor subtype (Homo sapiens)", 19),
    ("Cc1ccccc1-c1ccc(C(=O)N2Cc3ccc(C(=O)NCCc4ccccn4)n3Cc3ccccc32)cc1C [Example 50]", "human vasopressin V2 receptor subtype (Homo sapiens)", 17),
]

A = COc1cc(C(=O)N2Cc3ccc(C(=O)N4CCN(c5ccncc5)CC4)n3Cc3ccccc32)ccc1-c1cccc2ccccc12 [Example 121]
B = COc1cc(C(=O)N2Cc3ccc(C(=O)NCc4cccnc4)n3Cc3ccccc32)ccc1-c1ccccc1C [Example 41]
C = COc1cc(C(=O)N2Cc3ccc(C(=O)NCc4ccncc4)n3Cc3ccccc32)ccc1-c1ccccc1C [Example 93]
D = COc1ccccc1-c1ccc(C(=O)N2Cc3ccc(C(=O)NCCc4ccccn4)n3Cc3ccccc32)cc1 [Example 52]
Q: Could you please order the items by inhibition at 0.1 µM, going from the lowest number to the highest? Quick reminder: the answer is the labels in the order asked.
Ans: A, D, B, C
